Tested on: stress granules (α-G3BP1) in HeLa cells
Test: Dose-dependent inhibition of induced stress granules in HeLa cells by immunofluorescence
Assay type: cell-based
Settings: Homo sapiens, 2 h, in situ, 1-25 μM, n=2, read-out: EC50 for induced SG inhibition
MEASURED ENDPOINT: pEC50
To interpret pEC50, take it as minus log10 of a concentration measured in moles per litre.

**Query** Complete the entry with pEC50 for COc1ccc(S(=O)(=O)n2cc(C3CCCCC3)nn2)cc1 [HHS-166]
**Result** 5.10
